targetEntity: Fatty acid synthase (Homo sapiens, UniProt P49327)
Sequence (P49327 whole entry): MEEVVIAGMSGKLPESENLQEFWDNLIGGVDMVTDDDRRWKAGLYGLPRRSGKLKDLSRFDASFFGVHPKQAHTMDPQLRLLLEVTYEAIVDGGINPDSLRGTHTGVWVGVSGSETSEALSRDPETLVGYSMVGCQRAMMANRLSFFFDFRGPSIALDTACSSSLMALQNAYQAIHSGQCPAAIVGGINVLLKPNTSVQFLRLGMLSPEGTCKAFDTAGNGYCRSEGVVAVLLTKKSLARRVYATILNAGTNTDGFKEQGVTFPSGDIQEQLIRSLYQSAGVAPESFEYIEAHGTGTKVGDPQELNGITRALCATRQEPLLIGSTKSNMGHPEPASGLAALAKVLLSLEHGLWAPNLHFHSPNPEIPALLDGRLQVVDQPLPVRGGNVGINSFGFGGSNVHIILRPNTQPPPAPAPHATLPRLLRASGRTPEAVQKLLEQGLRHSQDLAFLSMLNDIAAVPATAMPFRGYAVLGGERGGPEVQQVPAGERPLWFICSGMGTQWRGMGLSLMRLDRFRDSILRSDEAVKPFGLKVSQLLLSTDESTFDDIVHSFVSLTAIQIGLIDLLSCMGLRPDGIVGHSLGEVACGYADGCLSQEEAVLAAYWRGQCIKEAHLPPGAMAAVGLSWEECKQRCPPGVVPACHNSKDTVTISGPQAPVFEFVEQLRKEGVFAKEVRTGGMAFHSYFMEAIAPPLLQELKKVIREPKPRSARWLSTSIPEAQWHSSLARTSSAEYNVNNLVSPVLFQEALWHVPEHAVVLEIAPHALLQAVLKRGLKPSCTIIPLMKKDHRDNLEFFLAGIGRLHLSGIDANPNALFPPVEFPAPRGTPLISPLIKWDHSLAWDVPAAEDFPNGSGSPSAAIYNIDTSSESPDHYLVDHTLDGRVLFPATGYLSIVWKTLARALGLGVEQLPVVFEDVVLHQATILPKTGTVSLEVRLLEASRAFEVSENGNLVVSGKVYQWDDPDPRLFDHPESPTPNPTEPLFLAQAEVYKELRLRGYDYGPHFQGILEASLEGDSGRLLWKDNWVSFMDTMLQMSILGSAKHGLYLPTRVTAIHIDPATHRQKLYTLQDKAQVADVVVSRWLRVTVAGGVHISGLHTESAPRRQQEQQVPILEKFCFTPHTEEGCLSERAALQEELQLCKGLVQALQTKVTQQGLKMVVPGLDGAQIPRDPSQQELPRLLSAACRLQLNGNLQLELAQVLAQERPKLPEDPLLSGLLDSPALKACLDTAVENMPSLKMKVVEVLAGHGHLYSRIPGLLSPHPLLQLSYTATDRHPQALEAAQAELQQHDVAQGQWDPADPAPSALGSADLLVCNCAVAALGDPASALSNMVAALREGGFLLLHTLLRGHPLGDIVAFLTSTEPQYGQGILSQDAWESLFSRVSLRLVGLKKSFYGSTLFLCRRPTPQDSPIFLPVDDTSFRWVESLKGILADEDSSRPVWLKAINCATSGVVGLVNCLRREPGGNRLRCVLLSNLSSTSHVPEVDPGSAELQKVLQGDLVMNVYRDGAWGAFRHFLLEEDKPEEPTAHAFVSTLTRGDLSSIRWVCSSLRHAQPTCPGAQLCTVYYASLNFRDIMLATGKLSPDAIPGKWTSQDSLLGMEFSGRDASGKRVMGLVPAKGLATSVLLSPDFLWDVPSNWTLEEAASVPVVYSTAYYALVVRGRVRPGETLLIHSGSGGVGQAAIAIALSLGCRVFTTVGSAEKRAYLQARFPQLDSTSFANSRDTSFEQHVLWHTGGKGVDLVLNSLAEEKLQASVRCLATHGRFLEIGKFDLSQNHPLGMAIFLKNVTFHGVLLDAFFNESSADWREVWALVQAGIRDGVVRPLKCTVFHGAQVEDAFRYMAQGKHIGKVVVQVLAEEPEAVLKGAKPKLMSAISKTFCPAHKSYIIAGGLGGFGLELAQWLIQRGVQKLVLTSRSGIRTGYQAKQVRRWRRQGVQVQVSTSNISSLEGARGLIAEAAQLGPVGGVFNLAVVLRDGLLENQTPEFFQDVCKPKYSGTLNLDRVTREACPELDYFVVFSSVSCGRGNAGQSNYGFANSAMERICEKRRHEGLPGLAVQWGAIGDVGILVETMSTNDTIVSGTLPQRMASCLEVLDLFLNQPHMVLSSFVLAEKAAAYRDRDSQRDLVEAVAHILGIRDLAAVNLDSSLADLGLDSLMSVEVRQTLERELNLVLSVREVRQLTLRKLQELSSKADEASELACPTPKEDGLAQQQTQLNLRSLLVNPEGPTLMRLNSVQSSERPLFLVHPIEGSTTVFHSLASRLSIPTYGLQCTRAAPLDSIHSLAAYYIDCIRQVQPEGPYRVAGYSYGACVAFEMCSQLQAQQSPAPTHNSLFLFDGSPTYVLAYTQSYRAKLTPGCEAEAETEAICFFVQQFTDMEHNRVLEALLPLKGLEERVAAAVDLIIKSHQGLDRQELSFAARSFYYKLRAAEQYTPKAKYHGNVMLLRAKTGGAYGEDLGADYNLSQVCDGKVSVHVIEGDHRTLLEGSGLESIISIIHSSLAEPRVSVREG
measurementNotes: inhibition of human FAS-TE enzyme activity – biochemical, kinetic fluorescence intensity, dose response (AID 624326);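 note: rate of fluorescence rise from hydrolysis of a fluorogenic O-methyl fluorescein ester substrate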
Format: functional
Activity calls are given as the source filed them. Cut-off read from the data, not from the text of the source: active = IC50 of 20 µM or less and inactive = more.
endpoint: IC50

The cases that follow already have their IC50 on record.
[
  {
    "compound": "O=C(OCc1ccc([N+](=O)[O-])cc1)C1CCN(S(=O)(=O)c2ccccc2)CC1",
    "IC50": "9.2 µM (active)"
  },
  {
    "compound": "CN(CC(=O)Nc1ccc(Cl)c(C(F)(F)F)c1)C(=O)C1CC(=O)N(c2ccc3c(c2)OCCO3)C1 (configuration not stated)",
    "IC50": "11.3 µM (active)"
  },
  {
    "compound": "O=C(/C=C/c1cccc([N+](=O)[O-])c1)NCCSc1ccccc1",
    "IC50": "5.62 µM (active)"
  },
  {
    "compound": "CCCCCOC(=O)c1ccc(N2C(=O)C3C4C=CC(C4)C3C2=O)cc1 (configuration not stated)",
    "IC50": "2.43 µM (active)"
  },
  {
    "compound": "O=C(NCc1ccco1)/C(=C\\c1cccc([N+](=O)[O-])c1)NC(=O)c1ccco1",
    "IC50": "8.51 µM (active)"
  },
  {
    "compound": "O=C(Nc1cc([N+](=O)[O-])ccc1Cl)C(Sc1ccccc1)c1ccccc1 (configuration not stated)",
    "IC50": "2.86 µM (active)"
  }
]

Note: attention shifts to another entry.
Note IC50 for the compound shown: COc1ccc([N+](=O)[O-])cc1/C=N/NC(=O)CNC(=O)c1cccc(F)c1 6.76 µM (active)

Ref: ChEMBL document CHEMBL1201862
